- Tested on: Shigella sonnei
- testDescription: Antibacterial activity against Shigella sonnei after 8 to 12 hrs by colorimetric microdilution broth technique
- Format: functional
observationType: MIC (µg/mL)
Unit µg/mL implied. Number only.

As a guide, the following entries are already answered.
| smilesStructure | MIC / µg/mL |
| --- | --- |
| CN(C)c1ccc(/C=C/c2cccc[n+]2C)cc1.COc1ccc(S(=O)(=O)[O-])cc1 | 150 |
| CN(C)c1ccc(/C=C/c2ccc3ccccc3[n+]2C)cc1.O=S(=O)([O-])c1ccc(Br)cc1 | 2.34 |
| CCOc1ccc(/C=C/c2cccc[n+]2C)cc1.O=S(=O)([O-])c1ccc(Br)cc1 | 300 |
| CN(C)c1ccc(/C=C/c2ccc3ccccc3[n+]2C)cc1.COc1ccc(S(=O)(=O)[O-])cc1 | 150 |

# context switch: different compound, same MIC
QUERY: State its MIC on Shigella sonnei: CCOc1ccc(/C=C/c2ccc3ccccc3[n+]2C)cc1.O=S(=O)([O-])c1ccc(Cl)cc1
RESULT: 300
